assay.details: Cataleptogenic activity
condition.details: rat, in vivo, ip; Wistar female rats; from total points of the maximum appearance of catatonia; read-out: Cataleptogenic Activity ED50
metric.name: TD50

Some compounds with known TD50 results, for comparison:
Cl.Cl.O.O=C1N=C2CCCCN2C12CCN(CCCN1c3ccccc3CCc3ccccc31)CC2 [Test Compound C] ... > 50 mg/kg
Cl.Cl.O.O=C1NC2CCCCN2C12CCN(CCCN1c3ccccc3CCc3ccccc31)CC2 (stereo not shown) [Test Compound A] ... > 50 mg/kg
Cl.Cl.O.O=C1NC2CCCCN2C12CCN(CCCN1c3ccccc3CCc3ccc(Cl)cc31)CC2 (stereo not shown) [Test Compound B] ... > 50 mg/kg

Now turn to the next compound.
IN: Any idea what TD50 was measured for CN(C)CCCN1c2ccccc2Sc2ccc(Cl)cc21 [Chlorpromazine, reference compound] ?
OUT: 12 mg/kg
